Assay: yeast display, Sf9 membrane polyspecificity reagent, FACS + sequencing; frameworks hold sequencing errors
quantity kind: polyreactivity (PSR sort gate)

Examples with their reported polyreactivity (PSR sort gate) follow.
QVQLVESGGGLVQAGGSLRLICAASGRTFGKYAMGWYRQAPGKEMQLVAAITRRGGSTFYADSVKGRFRISRDNAKNTVYLQMNSLKPEDTAVYYCAARSTVGPQYGVRFNYWGQGTQVTVSS : high polyreactivity
QVQLVESGGGLVQAGGSLRLSCAASGRTFTVNAMGWYRPAPGKERELVAAISGRSGRTSYADSVKGRFTISRDNAKNNVYLQMNSLKPEDTAVYSCNASGGYSTGSRFEYWGQGTQVTVSS : high polyreactivity
QVQHVESGGCLVQAGGSLRLSCAASGLIIKSYVMGWYRQAPGKERELVAGITGSGGTTYYADSVKGRFTISRDNAKNTVDLQMNSLKPEDTAVYYCDARSRSRPKYDYWGQGTQVTVSS : high polyreactivity
QVQLVESGGGLVQAGGSLRLSCAASGSTFDRNVMGWYRQAPGKERELVAAISRVSSTNYADSVKGRFTISRDNAKNTVYLQMNSLKPEDTAVYYFAADGAGSIMNYWGQGTQVTVSS : low polyreactivity
QVQLVESGGGLVQAGGSLRLSCAASGSPFGYYAMGWYRQATGKERELVAAITRSGGRTYYADSVKGRFTISRDNAKNTVYLQMNSLKPEDTAVYYCAADRVRRPSPGGMDFWGQGTQVTVSS : high polyreactivity

So what's the measured polyreactivity (PSR sort gate) for this one? QVQLVESGGGLVQAGGSLRLSCAASGGIFVPNAMGWSRQAPGKARELVAAISYSGGRTYYADSVKGRFTISRDNAKNTVYLQMTSLKPEDTAVYYCAAEYWFVYHHYNYWGQGTQVTVSS high polyreactivity

Cool, now QVQLVESGGGLVQAGGSLRLSCAASGSIFRYYAMGWYRPAPGKERELVAAISSRGGRTYYADSVKGRFTISRDNAKNTVYLQMNSLIPEDTAVYYCAARRYRYTTPFRYGYDYWGQGTQVTVSS high polyreactivity

Cool, now QVQIVESGGGLVQAGGSLRISCAASGSTFPRNVMGWYRQAPGKERELVAAITSSGGSTYYADSVKGRFTISRDNAQHTVYLQMNSLKPADTAVYYCNAVSYYLGDDYWGQGTQVTVSS high polyreactivity

Cool, now QVQLVESGGGLVQAGGSLRLSCAASGRIFGKNAMGWYRQAPGKERELVAAITGSGGNTYYADSVKGRFTISRDNAKNTVYLQMNSLKPEDTAVYYCNTSPRFRRYPDYDYWGQGTQVTVSS high polyreactivity

Cool, now QVQLVESGVGLFQAGGSLRLSCAASGITFYSYAMGWYRQAPGKESQLVATISRSGSTYYADSVKGRFTISRDNAKNSVYLQMNSLKPEDTAVYYCAAYYAVRGATYRYGYWGQGTQVTVSS high polyreactivity

Cool, now QVQLVESGGGLVQAGGSLRLSCAASGRTFYAYAMGWYRQAPGKERELVAAITSGASTYYADSVKGRFTISRDNAKNTVYLQMISLKPEDTAVYYCAKRVRYYKPGYDYWGQGTQVTVSS low polyreactivity
